These entries and their values trace back to patent US20160264616A1.

Listed compounds paired with reported pIC50
molecular target: RGS17-accelerated Gαo GTPase activity (Homo sapiens); construct: This is the same RGS17 construct used in the high throughput screening campaign that is fully active despite the N-terminal truncation; made in house; experiment: Malachite green steady-state GTPase assay (RGS17 GAP activity); type: biochemical; details: malachite green, n=3; read-out: IC50 for inhibition of RGS17 GAP activity
Kindly note that pIC50 refers to -log10 of the concentration in mol/L and answer with the value alone.

Past entries and their recorded results:
>>> observed_value("O=c1c(-c2cc(O)c(O)c(O)c2)coc2cc(O)c(O)c(O)c12")
4.46
>>> observed_value("CC1=C(O)C(=O)C=C2C1=CC=C1[C@@]2(C)CC[C@@]2(C)[C@@H]3C[C@](C)(C(=O)O)CC[C@]3(C)CC[C@]12C")
5.20

--- query ---
Exam item: // returns reported pIC50 for input `C[n+]1cc2c3c(ccc2c2ccc4cc5c(cc4c21)OCO5)OCO3`
Marked response: 4.92

###

target: RGS17 (Homo sapiens, UniProt Q9UGC6); construct: This is the same RGS17 construct used in the high throughput screening campaign that is fully active despite the N-terminal truncation; test: Isothermal titration calorimetry (ITC); conditions: ITC, 25 C; read-out: dissociation constant (Kd)
Sequence (Q9UGC6 84-200 limits assumed): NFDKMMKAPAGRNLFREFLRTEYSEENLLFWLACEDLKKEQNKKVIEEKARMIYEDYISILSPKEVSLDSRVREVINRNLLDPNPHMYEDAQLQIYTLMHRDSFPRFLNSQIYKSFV
Listed compounds paired with reported Kd
Quick note: give the figure in nM, leave out the unit.

>>> observed_value("C[n+]1cc2c3c(ccc2c2ccc4cc5c(cc4c21)OCO5)OCO3")
1020

--- query ---
Exam item: Lab note: need Kd for `O=c1c(-c2cc(O)c(O)c(O)c2)coc2cc(O)c(O)c(O)c12` on RGS17 (Homo sapiens, UniProt Q9UGC6), anyone have it?
Marked response: 714

###

target: RGS17-accelerated Gαo GTPase activity (Homo sapiens, UniProt Q9UGC6); construct: This is the same RGS17 construct used in the high throughput screening campaign that is fully active despite the N-terminal truncation; made in house; experiment: Malachite green steady-state GTPase assay (RGS17 GAP activity); assay type: biochemical
Sequence (Q9UGC6 72-206 limits assumed): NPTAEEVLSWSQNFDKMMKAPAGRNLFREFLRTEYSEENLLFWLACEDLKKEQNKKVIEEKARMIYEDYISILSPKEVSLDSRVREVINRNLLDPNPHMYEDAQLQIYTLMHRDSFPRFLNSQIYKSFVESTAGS
readout_type: IC50 (µM)
Quick note: give the figure in µM, leave out the unit.

Exam item: // returns reported IC50 for input `CC1=C(O)C(=O)C=C2C1=CC=C1[C@@]2(C)CC[C@@]2(C)[C@@H]3C[C@](C)(C(=O)O)CC[C@]3(C)CC[C@]12C`
Marked response: 6
